Every entry's value here was drawn from patent US12173088B2.

# Tested on: human red blood cells (hRBCs)
# test_method_notes: Hemolytic assay
# Assay type: cell-based
Peptide text beside a SMILES is read from it.
endpoint_name: HL50

Request: Supply recorded HL50 for CC(C)C[C@H](NC(=O)[C@H](CC(C)C)NC(=O)[C@H](CCCCN)NC(=O)CNC(=O)[C@H](CC(C)C)NC(=O)[C@H](CO)NC(=O)[C@H](CO)NC(=O)[C@H](CC(C)C)NC(=O)[C@H](CC(C)C)NC(=O)CN)C(N)=O [DFT525, GLLS--SL-GKLL] (H-GLLSSLGKLL-NH2; N-terminus and C-terminus assumed) here.
Response: >300 µM

Request: Supply recorded HL50 for CC(C)C[C@H](NC(=O)[C@H](CC(C)C)NC(=O)[C@H](CCCCN)NC(=O)CNC(=O)[C@H](C)NC(=O)[C@H](C)NC(=O)[C@H](CCCCN)NC(=O)[C@H](CC(C)C)NC(=O)[C@H](C)NC(=O)[C@H](CO)NC(=O)[C@H](CC(C)C)NC(=O)[C@H](CC(C)C)NC(=O)CN)C(N)=O [DFT521, GLLSALKAAGKLL] (H-GLLSALKAAGKLL-NH2; N-terminus assumed) here.
Response: >50 µM

----------
# System: S. aureus USA300
# test_method_notes: microbe, parasite or virus in culture
# Type: cell-based, Staphylococcus aureus
# condition_label: USA300
# Description: The bacterial strains used include the Gram-positive strains Staphylococcus aureus USA300 LAC, S. epidermidis 1457, and Bacillus subtilis 168, as well as the Gram-negative isolates Escherichia coli K12 and Acinetobacter baumannii B2367-12. […] The antibacterial activity of peptides was evaluated using a standard broth microdilution protocol with minor modifications as described (Mishra, et al. (2012) J. Am. Chem. Soc., 134:12426-12429). […]
Square brackets hold non-standard residues; d marks the D form. Peptide text beside a SMILES is read from it.
endpoint_name: MIC (µM)
Field format: number, assumed µM, no unit text.

Request: Supply recorded MIC for CC(C)C[C@@H](NC(=O)[C@@H](CC(C)C)NC(=O)[C@@H](CCCCN)NC(=O)[C@@H](CC(C)C)NC(=O)CNC(=O)[C@@H](CC(C)C)NC(=O)[C@@H](CO)NC(=O)[C@@H](CC(C)C)NC(=O)[C@@H](CC(C)C)NC(=O)[C@@H](CC(C)C)NC(=O)[C@@H](CO)NC(=O)[C@@H](CC(C)C)NC(=O)CN)C(N)=O [DFT503d, GLSLLLSLGLKLL] (H-G[dL][dS][dL][dL][dL][dS][dL]G[dL][dK][dL][dL]-NH2; N-terminus and C-terminus assumed) here.
Response: 3.1

Request: Supply recorded MIC for CC(C)C[C@H](NC(=O)[C@H](CC(C)C)NC(=O)[C@H](CCCCN)NC(=O)[C@H](CC(C)C)NC(=O)CNC(=O)[C@H](CC(C)C)NC(=O)[C@H](CO)NC(=O)[C@H](CC(C)C)NC(=O)[C@H](CC(C)C)NC(=O)[C@H](CC(C)C)NC(=O)[C@H](CCCCN)NC(=O)[C@H](CC(C)C)NC(=O)CN)C(N)=O [DFT561, GLKLLLSLGLKLL] (H-GLKLLLSLGLKLL-NH2; N-terminus and C-terminus assumed) here.
Response: 1.6

Request: Supply recorded MIC for CC(C)C[C@H](NC(=O)[C@H](CC(C)C)NC(=O)[C@H](CCCCN)NC(=O)[C@H](CC(C)C)NC(=O)CNC(=O)[C@H](CC(C)C)NC(=O)[C@H](CO)NC(=O)[C@H](CC(C)C)NC(=O)[C@H](CC(C)C)NC(=O)[C@H](CC(C)C)NC(=O)[C@H](CO)NC(=O)[C@H](CC(C)C)NC(=O)CN)C(N)=O [DFT503, GLSLLLSLGLKLL] (H-GLSLLLSLGLKLL-NH2; N-terminus and C-terminus assumed) here.
Response: 3.1
